The measurements presented in this section are drawn from patent US20080076750A1.

molecular target: TRPV1 (Homo sapiens, UniProt Q8NER1); construct: expressed in transfected cells; host or cells: HEK293-Tet-OFF; experiment: TRPV1 Screening Assay (FLIPR); format: cell-based; conditions: HEK293-TetOFF-TRPV1, PMA, read-out: VR1 flipr PMA IC50
Sequence (Q8NER1 whole entry, species assumed): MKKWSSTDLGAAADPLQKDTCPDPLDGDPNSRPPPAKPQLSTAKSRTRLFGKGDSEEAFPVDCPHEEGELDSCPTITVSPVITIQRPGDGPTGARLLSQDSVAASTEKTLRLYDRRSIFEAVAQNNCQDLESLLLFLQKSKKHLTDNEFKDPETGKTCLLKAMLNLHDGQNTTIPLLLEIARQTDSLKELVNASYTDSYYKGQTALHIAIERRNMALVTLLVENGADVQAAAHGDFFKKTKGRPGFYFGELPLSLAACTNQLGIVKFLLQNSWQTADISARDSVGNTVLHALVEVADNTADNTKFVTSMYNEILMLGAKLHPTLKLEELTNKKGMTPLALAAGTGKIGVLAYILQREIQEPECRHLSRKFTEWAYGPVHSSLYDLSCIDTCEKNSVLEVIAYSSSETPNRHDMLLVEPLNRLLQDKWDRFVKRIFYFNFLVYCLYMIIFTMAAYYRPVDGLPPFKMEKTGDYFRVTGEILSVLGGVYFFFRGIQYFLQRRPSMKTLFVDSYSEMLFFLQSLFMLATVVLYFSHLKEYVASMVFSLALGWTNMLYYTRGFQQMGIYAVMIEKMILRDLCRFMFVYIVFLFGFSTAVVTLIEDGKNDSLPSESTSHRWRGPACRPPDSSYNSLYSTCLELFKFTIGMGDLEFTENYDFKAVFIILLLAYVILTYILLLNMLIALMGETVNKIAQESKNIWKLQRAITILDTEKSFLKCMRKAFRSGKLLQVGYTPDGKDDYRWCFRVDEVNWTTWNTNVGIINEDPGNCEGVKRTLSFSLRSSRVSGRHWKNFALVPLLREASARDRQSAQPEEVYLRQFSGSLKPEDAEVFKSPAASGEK
# key: entry, value: pIC50
pIC50 (log units): -log10 of the concentration in mol/L.

Some compounds with known pIC50 results, for comparison:
CC(C)c1ccc(NC(=O)N2CCC3(CC2)C(=O)N(c2cncnc2)C3c2ccccc2)cc1 (stereo not drawn)	6.81
O=C(Nc1cccc2ccccc12)N1CCC2(CC1)C(=O)N(c1ccccc1)C2c1ccccn1 (stereo not drawn)	6.63
CC(C)c1ccc(NC(=O)N2CCC3(CC2)C(=O)N(c2ccccc2)C3c2ccccc2)cc1 (stereo not drawn) [drawing 427]	7.00
CC(C)c1ccc(NC(=O)N2CCC3(CC2)C(=O)N(c2ccccc2)C3c2ccccc2)cc1 (stereo not drawn) [drawing 426]	7.37

## Task Fill blank: measured pIC50 of the compound O=C(Nc1ccc(C(F)(F)F)cc1)N1CCC2(CC1)C(=O)N(c1ccccc1)C2c1ccccn1 (stereo not drawn) is ____.
## Result 7.48

## Task What would you report for O=C(Nc1ccc(C(F)(F)F)cc1)N1CCC2(CC1)C(=O)N(c1cncnc1)C2c1ccccc1 (stereo not drawn) ?
## Result 6.68

## Task Now try CC(C)c1ccc(NC(=O)N2CCC3(CC2)C(=O)N(c2cncnc2)C3c2ccccn2)cc1 (stereo not drawn) .
## Result 6.60

## Task Please do the same for O=C(Nc1ccc(Oc2ccccc2)cc1)N1CCC2(CC1)C(=O)N(c1ccccc1)C2c1ccccn1 (stereo not drawn) as well.
## Result 6.85

## Task Quick one: CC(C)c1ccc(NC(=O)N2CCC3(CC2)C(=O)N(c2ccccc2)C3c2ccccn2)cc1 (stereo not drawn)
## Result 7.09

====

target: human Cav3.2 (Homo sapiens); experiment: IonWorks Screen for hCaV3.2; conditions: IonWorks HT, HEK cells expressing human Cav3.2, 10 minutes incubation, pulse 10; read-out: IW hCav3.2 IC50
Sequence (O95180 whole entry): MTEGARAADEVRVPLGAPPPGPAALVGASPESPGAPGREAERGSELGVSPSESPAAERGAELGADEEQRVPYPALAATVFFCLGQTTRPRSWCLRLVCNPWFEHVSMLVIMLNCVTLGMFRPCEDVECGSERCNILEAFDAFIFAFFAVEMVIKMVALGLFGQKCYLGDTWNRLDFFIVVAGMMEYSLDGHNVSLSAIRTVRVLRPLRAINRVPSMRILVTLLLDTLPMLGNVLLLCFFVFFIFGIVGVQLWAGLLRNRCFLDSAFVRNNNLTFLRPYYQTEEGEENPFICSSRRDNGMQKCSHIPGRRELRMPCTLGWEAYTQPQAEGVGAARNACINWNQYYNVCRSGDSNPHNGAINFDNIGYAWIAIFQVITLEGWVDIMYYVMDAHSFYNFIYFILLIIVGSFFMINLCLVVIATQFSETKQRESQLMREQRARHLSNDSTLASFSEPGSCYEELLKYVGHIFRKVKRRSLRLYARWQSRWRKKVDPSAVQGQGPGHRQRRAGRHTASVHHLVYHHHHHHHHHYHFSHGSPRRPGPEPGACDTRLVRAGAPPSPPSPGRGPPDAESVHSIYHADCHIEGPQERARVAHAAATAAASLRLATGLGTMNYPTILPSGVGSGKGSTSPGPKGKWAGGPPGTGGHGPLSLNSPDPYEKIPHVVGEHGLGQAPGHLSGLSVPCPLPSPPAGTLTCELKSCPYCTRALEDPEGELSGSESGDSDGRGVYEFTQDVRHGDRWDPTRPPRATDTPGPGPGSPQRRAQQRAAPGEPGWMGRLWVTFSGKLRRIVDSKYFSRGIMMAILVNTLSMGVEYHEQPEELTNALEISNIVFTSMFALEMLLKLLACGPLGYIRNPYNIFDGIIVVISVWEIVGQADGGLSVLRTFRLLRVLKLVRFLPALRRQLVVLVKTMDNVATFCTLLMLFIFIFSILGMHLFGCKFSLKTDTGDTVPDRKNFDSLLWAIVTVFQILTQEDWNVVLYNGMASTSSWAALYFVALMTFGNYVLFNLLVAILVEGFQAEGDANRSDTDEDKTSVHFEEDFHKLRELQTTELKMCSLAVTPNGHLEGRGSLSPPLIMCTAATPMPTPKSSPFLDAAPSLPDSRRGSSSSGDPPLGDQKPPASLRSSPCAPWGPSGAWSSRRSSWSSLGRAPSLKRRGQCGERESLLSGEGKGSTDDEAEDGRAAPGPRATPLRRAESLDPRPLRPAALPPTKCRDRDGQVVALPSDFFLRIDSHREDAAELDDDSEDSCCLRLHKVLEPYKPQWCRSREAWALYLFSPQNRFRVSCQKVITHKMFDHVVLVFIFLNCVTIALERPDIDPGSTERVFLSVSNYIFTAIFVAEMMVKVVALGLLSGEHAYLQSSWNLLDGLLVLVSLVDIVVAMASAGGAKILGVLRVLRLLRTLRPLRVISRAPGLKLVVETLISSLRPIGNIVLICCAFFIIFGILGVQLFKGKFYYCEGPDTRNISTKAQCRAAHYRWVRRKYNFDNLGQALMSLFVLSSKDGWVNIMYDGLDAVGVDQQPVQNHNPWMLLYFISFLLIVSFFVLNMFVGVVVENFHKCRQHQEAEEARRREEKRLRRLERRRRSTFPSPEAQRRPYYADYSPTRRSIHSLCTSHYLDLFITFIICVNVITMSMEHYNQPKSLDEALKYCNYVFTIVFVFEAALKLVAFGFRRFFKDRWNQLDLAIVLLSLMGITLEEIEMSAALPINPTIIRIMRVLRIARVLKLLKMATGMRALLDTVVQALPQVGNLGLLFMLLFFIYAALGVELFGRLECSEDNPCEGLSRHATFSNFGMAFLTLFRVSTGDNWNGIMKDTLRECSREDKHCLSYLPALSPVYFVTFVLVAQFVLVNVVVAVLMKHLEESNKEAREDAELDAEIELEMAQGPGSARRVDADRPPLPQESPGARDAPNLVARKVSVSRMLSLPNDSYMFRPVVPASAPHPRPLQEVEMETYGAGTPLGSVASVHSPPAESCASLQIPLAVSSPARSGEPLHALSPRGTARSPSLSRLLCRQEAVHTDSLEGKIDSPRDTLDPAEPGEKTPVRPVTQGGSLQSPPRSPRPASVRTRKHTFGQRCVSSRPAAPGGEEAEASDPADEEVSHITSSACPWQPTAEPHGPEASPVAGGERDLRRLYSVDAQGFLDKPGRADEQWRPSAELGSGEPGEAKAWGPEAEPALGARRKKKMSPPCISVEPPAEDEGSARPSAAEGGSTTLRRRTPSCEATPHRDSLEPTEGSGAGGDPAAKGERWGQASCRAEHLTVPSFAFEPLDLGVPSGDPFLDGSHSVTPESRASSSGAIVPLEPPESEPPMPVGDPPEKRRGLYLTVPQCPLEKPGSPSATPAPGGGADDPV
Below, each entry is listed alongside its reported IC50.
Respond with a number, then the unit of measure.

## Task IC50 for O=C(Nc1ccccc1)N1CCC2(CC1)C(=O)N(c1cccc(Cl)c1)C2c1ccccn1 (stereo not shown) ?
## Result 240 nM

## Task And the next one, CC(C)N1C(=O)C2(CCN(C(=O)Nc3ccc(Cl)cc3)CC2)C1c1ccc(Cl)cc1 (stereo not shown) ?
## Result 423 nM

## Task Entry to check: CC(C)N1C(=O)C2(CCN(C(=O)Nc3ccc(F)c(F)c3)CC2)C1c1ccc(Cl)cc1 (stereo not shown)
## Result 304 nM

## Task # iterate: O=C(Nc1ccc(F)c(F)c1)N1CCC2(CC1)C(=O)N(c1ccc(F)cc1)C2c1ccccn1 (stereo not shown)
## Result 490 nM

## Task Same again, this time with O=C(Nc1ccc(F)c(F)c1)N1CCC2(CC1)C(=O)N(c1cccc(Cl)c1)C2c1ccccn1 (stereo not shown)
## Result 117 nM

## Task Can you check Cc1c(Cl)cccc1NC(=O)N1CCC2(CC1)C(=O)N(c1ccccc1)C2c1ccccc1 (stereo not shown) [drawing 414] next?
## Result 192 nM

## Task Then O=C(Nc1ccc(F)c(F)c1)N1CCC2(CC1)C(=O)N(c1ccc(F)cc1)C2c1ccc(Cl)cc1 (stereo not shown) ?
## Result 293 nM

====

System: NPC1L1 (Rattus norvegicus) | Read-out: pKi
Please express pKi as -log10 of the molar concentration.

O=C(Nc1c(F)cccc1F)N1CCC2(CC1)C(=O)N(c1ccccc1)C2c1ccccc1 (stereo not drawn)	5.18
Cc1c(Cl)cccc1NC(=O)N1CCC2(CC1)C(=O)N(c1ccccc1)C2c1ccccc1 (stereo not drawn) [drawing 435]	5.44
Cc1cccc(Cl)c1NC(=O)N1CCC2(CC1)C(=O)N(c1ccccc1)C2c1ccccc1 (stereo not drawn) [drawing 434]	5.93
Cc1ccc(C)c(NC(=O)N2CCC3(CC2)C(=O)N(c2ccccc2)C3c2ccccc2)c1 (stereo not drawn)	5.46

## Task Could you share which pKi value was measured for O=C(Nc1cccc(Cl)c1Cl)N1CCC2(CC1)C(=O)N(c1ccccc1)C2c1ccccc1 (stereo not drawn) ?
## Result 5.30

## Task Also check Cc1cccc(Cl)c1NC(=O)N1CCC2(CC1)C(=O)N(c1ccccc1)C2c1ccccc1 (stereo not drawn) [drawing 443]
## Result 5.97

====

Target: UniProt:Q9UHC9
Sequence (Q9UHC9 22-1359): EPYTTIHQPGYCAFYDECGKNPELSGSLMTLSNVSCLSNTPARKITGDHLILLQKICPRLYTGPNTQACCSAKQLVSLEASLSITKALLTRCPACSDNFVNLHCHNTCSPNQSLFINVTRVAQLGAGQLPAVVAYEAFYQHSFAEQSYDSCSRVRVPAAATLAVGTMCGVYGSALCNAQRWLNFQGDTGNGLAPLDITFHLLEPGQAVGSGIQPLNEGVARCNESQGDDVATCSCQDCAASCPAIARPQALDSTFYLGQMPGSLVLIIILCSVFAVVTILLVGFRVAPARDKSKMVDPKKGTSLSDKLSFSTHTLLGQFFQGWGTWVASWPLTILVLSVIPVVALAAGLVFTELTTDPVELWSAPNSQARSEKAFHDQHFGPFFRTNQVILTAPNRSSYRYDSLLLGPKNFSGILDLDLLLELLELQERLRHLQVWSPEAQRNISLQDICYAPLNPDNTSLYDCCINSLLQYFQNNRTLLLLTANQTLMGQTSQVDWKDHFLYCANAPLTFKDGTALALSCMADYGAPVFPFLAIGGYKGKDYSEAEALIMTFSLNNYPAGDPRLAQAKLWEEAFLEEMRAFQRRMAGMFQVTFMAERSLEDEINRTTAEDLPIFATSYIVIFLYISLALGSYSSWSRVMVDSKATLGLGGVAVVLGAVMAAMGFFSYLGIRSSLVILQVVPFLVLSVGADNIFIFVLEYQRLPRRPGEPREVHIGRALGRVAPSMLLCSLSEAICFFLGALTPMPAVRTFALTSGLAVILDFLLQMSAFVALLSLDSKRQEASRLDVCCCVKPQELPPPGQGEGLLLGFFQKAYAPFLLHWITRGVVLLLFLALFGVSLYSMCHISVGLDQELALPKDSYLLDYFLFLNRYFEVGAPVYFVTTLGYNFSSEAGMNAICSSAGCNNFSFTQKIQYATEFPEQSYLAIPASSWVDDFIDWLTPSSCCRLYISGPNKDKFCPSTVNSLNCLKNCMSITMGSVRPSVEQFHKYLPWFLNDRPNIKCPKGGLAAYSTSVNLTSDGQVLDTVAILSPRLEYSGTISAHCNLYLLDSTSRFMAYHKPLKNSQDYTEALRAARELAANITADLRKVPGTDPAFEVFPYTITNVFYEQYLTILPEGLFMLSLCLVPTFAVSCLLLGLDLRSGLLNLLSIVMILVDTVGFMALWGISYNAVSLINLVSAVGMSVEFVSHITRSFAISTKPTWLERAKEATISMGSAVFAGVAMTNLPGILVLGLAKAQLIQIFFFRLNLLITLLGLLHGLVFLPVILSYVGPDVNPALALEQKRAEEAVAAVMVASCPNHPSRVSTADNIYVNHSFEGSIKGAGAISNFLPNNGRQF
Decide using Ki alone. Strictly below 4 µM: label 1. Equal to or above 4 µM: label 0.

Field: example entries. Status: answers known.
COc1ccc(Cl)cc1NC(=O)N1CCC2(CC1)C(=O)N(c1ccccc1)C2c1ccccc1 (stereo not drawn)	label 0
Cc1c(Cl)cccc1NC(=O)N1CCC2(CC1)C(=O)N(c1ccccc1)C2c1ccccc1 (stereo not drawn) [drawing 435]	label 1

Please find the next compound below.
## Task Consider the compound Cc1cccc(Cl)c1NC(=O)N1CCC2(CC1)C(=O)N(c1ccccc1)C2c1ccccc1 (stereo not drawn) [drawing 434] . Is its Ki strictly less than 4 µM?
## Result label 1

====

target: TRPV1 (Homo sapiens, UniProt Q8NER1); construct: expressed in transfected cells; host or cells: HEK293-Tet-OFF; experiment: TRPV1 Screening Assay (FLIPR); assay type: cell-based; settings: HEK293-TetOFF-TRPV1, capsaicin (50 nM final), read-out: VR1 flipr CAPSAICIN IC50
In this section, each of the compounds is paired with its reported pIC50.
pIC50 (log units): -log10 of the concentration in mol/L.

Reference set (8 entries):
O=C(Nc1ccc(C(F)(F)F)cc1)N1CCC2(CC1)C(=O)N(c1ccccc1)C2c1ccccc1 (stereo not shown)	6.77
O=C(Nc1ccc(C(F)(F)F)cc1)N1CCC2(CC1)C(=O)N(c1ccccc1)C2c1ccccn1 (stereo not shown)	7.48
O=C(Nc1ccc(Oc2ccccc2)cc1)N1CCC2(CC1)C(=O)N(c1ccccc1)C2c1ccccn1 (stereo not shown)	6.59
CC(C)c1ccc(NC(=O)N2CCC3(CC2)C(=O)N(c2cncnc2)C3c2ccccc2)cc1 (stereo not shown)	6.62
O=C(Nc1ccc(C(F)(F)F)cc1)N1CCC2(CC1)C(=O)N(c1cncnc1)C2c1ccccc1 (stereo not shown)	6.74
CC(C)c1ccc(NC(=O)N2CCC3(CC2)C(=O)N(c2ccccc2)C3c2ccccc2)cc1 (stereo not shown) [drawing 426]	7.09
CC(C)c1ccc(NC(=O)N2CCC3(CC2)C(=O)N(c2ccccc2)C3c2ccccn2)cc1 (stereo not shown)	7.15
CC(C)c1ccc(NC(=O)N2CCC3(CC2)C(=O)N(c2cncnc2)C3c2ccccn2)cc1 (stereo not shown)	6.52

## Task Suppose we examine the compound O=C(Nc1cccc2ccccc12)N1CCC2(CC1)C(=O)N(c1ccccc1)C2c1ccccn1 (stereo not shown) ; what pIC50 value has been reported?
## Result 6.70

## Task Note, next up: CC(C)c1ccc(NC(=O)N2CCC3(CC2)C(=O)N(c2ccccc2)C3c2ccccc2)cc1 (stereo not shown) [drawing 427]
## Result 6.86
